System: Alopecurus myosuroides (ALOMY)
PROCEDURE_SUMMARY: Herbicidal pre-emergence action (C), 320 g/ha
Type: in vivo
CONDITIONS: ca. 3 weeks
EXPERIMENTAL_ENDPOINT: herbicidal effect ALOMY (%)
Your answer is read as %, so omit the unit and give the number.

IN: // map Clc1cc2scnc2nc1-c1sccc1Cl to recorded herbicidal effect ALOMY (system: Alopecurus myosuroides (ALOMY))
OUT: 100

IN: What do we get for Cc1cc2scnc2nc1-c1ccsc1C ?
OUT: 100

IN: What do we get for Cc1cc2scnc2nc1-c1sccc1Cl ?
OUT: 100

IN: What do we get for Cc1cc2scnc2nc1-c1cccc(F)c1 ?
OUT: 100

IN: What do we get for Clc1ccccc1-c1nc2ncsc2cc1Cl ?
OUT: 100

IN: What do we get for Clc1cc2scnc2nc1-c1ccsc1 ?
OUT: 90

IN: What do we get for CCc1cc2scnc2nc1-c1ccccc1F ?
OUT: 100

IN: What do we get for Cc1ccsc1-c1nc2ncsc2cc1Cl ?
OUT: 100

IN: What do we get for CCCc1cc2scnc2nc1-c1ccccc1F ?
OUT: 90

IN: What do we get for C=Cc1cc2scnc2nc1-c1ccccc1F ?
OUT: 100

IN: What do we get for Fc1cccc(F)c1-c1nc2ncsc2cc1Cl ?
OUT: 100

IN: What do we get for Fc1ccc(-c2nc3ncsc3cc2Cl)c(F)c1 ?
OUT: 90

IN: What do we get for CCc1cc2scnc2nc1-c1ccccc1C ?
OUT: 100

IN: What do we get for Cc1cc2scnc2nc1C12CCCCC1O2 (centres unmarked) ?
OUT: 100

IN: What do we get for Cc1cccc(F)c1-c1nc2ncsc2cc1Cl ?
OUT: 100

IN: What do we get for Fc1ccccc1-c1nc2ncsc2cc1C1CC1 ?
OUT: 90

IN: What do we get for Cc1sccc1-c1nc2ncsc2cc1Br ?
OUT: 100

IN: What do we get for Fc1cccc(-c2nc3ncsc3cc2Cl)c1 ?
OUT: 100

IN: What do we get for Fc1ccccc1-c1nc2ncsc2cc1Br ?
OUT: 100

IN: What do we get for Cc1cc2scnc2nc1-c1ccc(F)cc1F ?
OUT: 100
